Reported half-life by item:
assay: in vitro; details: human, microsomes, t1/2 of CYP probe controls
// note: answer is a bare numeric in min

Solved entries:
# input Tell me the measured half-life of COc1ccc2[nH]c([S+]([O-])Cc3ncc(C)c(OC)c3C)nc2c1 (stereo not drawn) , please.
# output 23.5

# input Also check `Cc1ncc2n1-c1ccc(Cl)cc1C(c1ccccc1F)=NC2`
# output 2.35

Further cases:
# input Field request: half-life | item: `COc1ccc2c(c1)[C@]13CCCC[C@@H]1[C@H](C2)N(C)CC3`
# output 14.8

* * *

test system: Ebola virus/H.sapiens-tc/COD/1995/Kikwit-9510621 (EBOV/Kik); experiment: microbe, parasite or virus in culture; format: cell-based; details: Zaire ebolavirus, HeLa, read-out: IC50 range against three strains of EBOV
reported_endpoint: IC50

# input Requested read-out: IC50. Entry: `COc1ccc2nc3cc(Cl)ccc3c(Nc3cc(CN4CCCC4)c(O)c(CN4CCCC4)c3)c2n1`
# output 0.82 to 1.3 µM

* * *

experiment: in vivo; details: male, Hartley, guinea pig, po, 100 mg/kg, Tmax
reported_endpoint: Tmax (h)
Note: unit h is implicit; provide only the numeric part.

# input Fill in the blank: the reported Tmax of CCN(CC)CCOc1ccc2c(c1)C(=O)c1cc(OCCN(CC)CC)ccc1-2 [Tilorone] is ____.
# output 1

* * *

conditions: guinea pig, microsomes
reported_endpoint: Clint
Lab note: write the figure by itself, no unit.

# input State the recorded Clint for this entry: CCN(CC)CCCC(C)Nc1ccnc2cc(Cl)ccc12 (stereo not shown)
# output 10.5

# input Would you mind doing CCN(CC)CCCC(C)Nc1c2ccc(Cl)cc2nc2ccc(OC)cc12 (stereo not shown) as well?
# output 81.3

# input `CCN(CC)CCOc1ccc2c(c1)C(=O)c1cc(OCCN(CC)CC)ccc1-2` ?
# output 113.7

Shift focus to the following entry.
# input I have this molecule here, `COc1ccc2nc3cc(Cl)ccc3c(Nc3cc(CN4CCCC4)c(O)c(CN4CCCC4)c3)c2n1` , and I need its recorded Clint.
# output 21.0

* * *

assay: in vivo; conditions: female, Hartley, guinea pig, po, 100 mg/kg, Tmax
reported_endpoint: Tmax (h)
Dear colleague, please return just the value in h, with no unit written.

# input Consider the compound `CCN(CC)CCOc1ccc2c(c1)C(=O)c1cc(OCCN(CC)CC)ccc1-2` and give its measured Tmax.
# output 1

* * *

Measured Clint accompanies every entry in the list below.
conditions: human, microsomes
Form: value (number only, do not type unit).

These solved cases illustrate the format of a correct answer.
# input Need Clint of CCN(CC)CCCC(C)Nc1c2ccc(Cl)cc2nc2ccc(OC)cc12 (stereo not shown) [Quinacrine] , thanks.
# output 50.5

# input And what about the compound CCN(CC)CCCC(C)Nc1ccnc2cc(Cl)ccc12 (stereo not shown) [Chloroquine] ?
# output 6.9

# input How about COc1ccc2nc3cc(Cl)ccc3c(Nc3cc(CN4CCCC4)c(O)c(CN4CCCC4)c3)c2n1 [Pyronaridine] ?
# output 11.4

Here's the next entry for you.
# input Fill in: Clint of CCN(CC)CCOc1ccc2c(c1)C(=O)c1cc(OCCN(CC)CC)ccc1-2 [Tilorone] is ___
# output 10.9

* * *

assay: in vivo; conditions: female, Hartley, guinea pig, po, 200 mg/kg, AUClast Mean
reported_endpoint: AUC(0-t) (ng·h/mL)
Response body: numeric value in ng·h/mL, unit text excluded.

# input Could you share which AUC(0-t) value was measured for `CCN(CC)CCOc1ccc2c(c1)C(=O)c1cc(OCCN(CC)CC)ccc1-2` ?
# output 4680

* * *

The following molecules are shown together with reported Relative Peak Area/Abundance HLM values.
conditions: human, microsomes, 1 h, pH 7.4
Record the value in %, omitting the unit from your answer.

# input Can you look up the measured Relative Peak Area/Abundance HLM of `CCN(CC)CCOc1ccc2c(c1)C(=O)c1cc(OCCN(CC)CC)ccc1-2` for me?
# output 54.9

# input Now the molecule CCN(CC)CCCC(C)Nc1c2ccc(Cl)cc2nc2ccc(OC)cc12 (stereo not shown)
# output 32.3

# input Entry CCN(CC)CCCC(C)Nc1ccnc2cc(Cl)ccc12 (stereo not shown) please
# output 56.7

# context switch: different molecule, same Relative Peak Area/Abundance HLM
# input Give the measured Relative Peak Area/Abundance HLM of `COc1ccc2nc3cc(Cl)ccc3c(Nc3cc(CN4CCCC4)c(O)c(CN4CCCC4)c3)c2n1` .
# output 85.9

* * *

test: in vitro; details: human, microsomes, Dextromethorphan t1/2
reported_endpoint: half-life (min)
Hi! Could you send only the number? It should be in min, unit omitted.

# input Fill in: half-life of COc1ccc2c(c1)[C@]13CCCC[C@@H]1[C@H](C2)N(C)CC3 [Dextromethorphan] is ___
# output 19.7

* * *

Reported Dextromethorphan: compound, t1/2 normalized to dextromethorphan control values for a set of molecules
details: guinea pig, microsomes

Here are 3 molecules together with their reported answers.
# input Data request, read-out Dextromethorphan: compound, t1/2 normalized to dextromethorphan control, for CCN(CC)CCCC(C)Nc1ccnc2cc(Cl)ccc12 (stereo not shown)
# output 42.1

# input Next entry: `CCN(CC)CCOc1ccc2c(c1)C(=O)c1cc(OCCN(CC)CC)ccc1-2`
# output 3.9

# input Again, but for `COc1ccc2nc3cc(Cl)ccc3c(Nc3cc(CN4CCCC4)c(O)c(CN4CCCC4)c3)c2n1`
# output 23.4

Alright, here's another molecule for you.
# input Which Dextromethorphan: compound, t1/2 normalized to dextromethorphan control is listed for CCN(CC)CCCC(C)Nc1c2ccc(Cl)cc2nc2ccc(OC)cc12 (stereo not shown) ?
# output 5.4

* * *

details: monkey, microsomes
reported_endpoint: t1/2 (h)
Use h as the unit, but write only the number.

Study these solved cases before continuing.
# input Item CCN(CC)CCOc1ccc2c(c1)C(=O)c1cc(OCCN(CC)CC)ccc1-2 [Tilorone] has what recorded t1/2?
# output 1.57

# input And then CCN(CC)CCCC(C)Nc1c2ccc(Cl)cc2nc2ccc(OC)cc12 (stereo not shown) [Quinacrine] , what is it?
# output 0.168

# input Then what about the molecule CCN(CC)CCCC(C)Nc1ccnc2cc(Cl)ccc12 (stereo not shown) [Chloroquine] ?
# output 1.78

Next up:
# input What value of measured t1/2 is listed for COc1ccc2nc3cc(Cl)ccc3c(Nc3cc(CN4CCCC4)c(O)c(CN4CCCC4)c3)c2n1 [Pyronaridine] ?
# output 1.5

* * *

assay: in vivo; settings: both, Hartley, guinea pig, po
reported_endpoint: MTD
Number plus unit, in that order.

# input So what's the measured MTD for this one? `CCN(CC)CCOc1ccc2c(c1)C(=O)c1cc(OCCN(CC)CC)ccc1-2`
# output 30 mg/kg

* * *

test system: Marburg virus/H.sapiens-tc/AGO/2005/Ang-1379v (MARV/Ang); assay: organism not typed; assay type: cell-based; conditions: HeLa, read-out: IC50 range against two strains of Marburg virus
reported_endpoint: IC50

# input May I ask what IC50 has been recorded for `COc1ccc2nc3cc(Cl)ccc3c(Nc3cc(CN4CCCC4)c(O)c(CN4CCCC4)c3)c2n1` ?
# output 1010 to 2720 nM

* * *

# CC50 annotations
assay: in vitro; conditions: dog
The response must be a number in µM with no trailing unit.

# input Consider the compound COc1ccc2nc3cc(Cl)ccc3c(Nc3cc(CN4CCCC4)c(O)c(CN4CCCC4)c3)c2n1 [Pyronaridine] and give its measured CC50.
# output 3.2

# input for lookup
# input Name the reported CC50 value associated with the compound CCN(CC)CCOc1ccc2c(c1)C(=O)c1cc(OCCN(CC)CC)ccc1-2 [Tilorone]
# output 19

* * *

assay: in vivo; details: male, Hartley, guinea pig, po, 200 mg/kg, Cmax Mean
reported_endpoint: Cmax (ng/mL)
# unit: ng/mL | format: bare number

# input Give its Cmax value. Item: `CCN(CC)CCOc1ccc2c(c1)C(=O)c1cc(OCCN(CC)CC)ccc1-2`
# output 355

* * *

details: microsomes
reported_endpoint: Clint
Number only, no unit.

Some entries whose results are on file:
# input What Clint value was documented for this compound, `COc1ccc2nc3cc(Cl)ccc3c(Nc3cc(CN4CCCC4)c(O)c(CN4CCCC4)c3)c2n1` ?
# output 15.5

# input For CCN(CC)CCCC(C)Nc1ccnc2cc(Cl)ccc12 (stereo not shown) then?
# output 13.0

# input What about CCN(CC)CCCC(C)Nc1c2ccc(Cl)cc2nc2ccc(OC)cc12 (stereo not shown) ?
# output 137.4

Please look at the following compound next.
# input Which Clint is listed for `CCN(CC)CCOc1ccc2c(c1)C(=O)c1cc(OCCN(CC)CC)ccc1-2` ?
# output 14.7

* * *

test: in vivo; conditions: female, Hartley, guinea pig, po, 200 mg/kg, Cmax Mean
reported_endpoint: Cmax (ng/mL)
Dear colleague, please return just the value in ng/mL, with no unit written.

# input Which Cmax is reported for this compound? CCN(CC)CCOc1ccc2c(c1)C(=O)c1cc(OCCN(CC)CC)ccc1-2 [Tilorone]
# output 448
